For each of the compounds below, state its solubility (g/100 g solution).
# procedure_summary: xn = mol fraction of the nth substance listed, in the solute-free solvent
# test_parameters: 288.15 K; x2 = 0.1139

Here's what some known entries look like.
- compound: "Cc1[nH]c(=O)c(C#N)cc1-c1ccncc1 + CC(C)O + O"
  result: 0.00366
- compound: "c1ccc2[nH]c(-c3cscn3)nc2c1 + CCCO + O"
  result: 0.0402
- compound: "c1ccc2[nH]c(-c3cscn3)nc2c1 + CC(C)O + O"
  result: 0.0251
- compound: "Nc1nccnc1Cl + CC(C)O + O"
  result: 0.215

List solubility (g/100 g solution) for every entry below, keeping the order given.
1. Nc1cccc(S(=O)(=O)c2cccc(N)c2)c1 + CC(C)O + O
2. CN1CCN(C2=Nc3cc(Cl)ccc3Nc3ccccc32)CC1 + CC(C)O + O

Response:
[0.219, 0.096]

---

# procedure_summary: xn = mol fraction of the nth substance listed, in the solute-free solvent
# test_parameters: 293.15 K; x2 = 0.1
# solubility (g/100 g solution) >= 0.3 gives t, anything below gives f

- molecule: "S=c1[nH]ncs1 + CO + O"
  classification: "t"
- molecule: "CC(N)C(=O)O (stereo not given) + O + CC(C)=O"
  classification: "f"
- molecule: "Cc1ncc(C[n+]2csc(CCO)c2C)c(N)n1.O=[N+]([O-])[O-] + O + CO"
  classification: "t"
- molecule: "S=c1[nH]ncs1 + CCO + O"
  classification: "t"
- molecule: "S=c1[nH]ncs1 + CCCO + O"
  classification: "t"
- molecule: "CC(N)C(=O)O (stereo not given) + O + CCCO"
  classification: "f"
- molecule: "CC(N)C(=O)O (stereo not given) + O + CC(C)O"
  classification: "f"
- molecule: "CC(N)C(=O)O (stereo not given) + O + CO"
  classification: "f"
- molecule: "S=c1[nH]ncs1 + CC(C)=O + O"
  classification: "t"

In the following, a different molecule is considered.
Request: Hello, I need to know if CC(N)C(=O)O (stereo not given) + O + CCO has measured solubility (g/100 g solution) not below 0.3. Thanks!
Response: f

---

# procedure_summary: xn = mol fraction of the nth substance listed, in the solute-free solvent
# test_parameters: 313.15 K; x2 = 0.4
measured_endpoint: solubility (g/100 g solution)
Give bare numbers.

Here's what some known entries look like.
- compound: "CC(N)C(=O)O (stereo unspecified) + O + CO"
  result: 0.816
- compound: "CC(N)C(=O)O (stereo unspecified) + O + CC(C)O"
  result: 0.158
- compound: "OCCN(CCO)c1nc(N2CCCCC2)c2nc(N(CCO)CCO)nc(N3CCCCC3)c2n1 + CC(C)O + O"
  result: 20.2
- compound: "S=c1[nH]ncs1 + CCCO + O"
  result: 20.1
- compound: "Cc1ncc(C[n+]2csc(CCO)c2C)c(N)n1.O=[N+]([O-])[O-] + O + CO"
  result: 2.52

Request: Name the recorded solubility (g/100 g solution) for CCCCCOC(=O)Nc1nc(=O)n(C2OC(C)C(O)C2O)cc1F (stereo unspecified) + CCOC(C)=O + CCCCCCC .
Response: 0.184

---

# procedure_summary: xn = mol fraction of the nth substance listed, in the solute-free solvent
# test_parameters: 283.15 K; x2 = 0.2
# solubility (g/100 g solution) >= 0.09 gives 1, anything below gives -1

Sample answers from the record:
- compound: "S=c1[nH]ncs1 + CCO + O"
  classification: 1
- compound: "Cc1ncc(C[n+]2csc(CCO)c2C)c(N)n1.O=[N+]([O-])[O-] + O + CO"
  classification: 1
- compound: "CC(N)C(=O)O (stereo not given) + O + CO"
  classification: 1
- compound: "CC(N)C(=O)O (stereo not given) + O + CC(C)O"
  classification: -1
- compound: "CC(N)C(=O)O (stereo not given) + O + CC(C)=O"
  classification: -1
- compound: "S=c1[nH]ncs1 + CO + O"
  classification: 1
- compound: "S=c1[nH]ncs1 + CC(C)=O + O"
  classification: 1
- compound: "CC(N)C(=O)O (stereo not given) + O + CCCO"
  classification: -1

In the following, a different compound is considered.
Request: Hello, I need to know if S=c1[nH]ncs1 + CCCO + O has measured solubility (g/100 g solution) not below 0.09. Thanks!
Response: 1

---

# procedure_summary: xn = mol fraction of the nth substance listed, in the solute-free solvent
# test_parameters: 283.15 K; x2 = 0.5
measured_endpoint: solubility (g/100 g solution)
Numbers only.

Here's what some known entries look like.
- compound: "CC(N)C(=O)O (configuration not stated) + O + CCO"
  measured_endpoint: "solubility (g/100 g solution)"
  result: 0.31
- compound: "S=c1[nH]ncs1 + CC(C)=O + O"
  measured_endpoint: "solubility (g/100 g solution)"
  result: 21.7
- compound: "S=c1[nH]ncs1 + CCO + O"
  measured_endpoint: "solubility (g/100 g solution)"
  result: 8
- compound: "CC(N)C(=O)O (configuration not stated) + O + CCCO"
  measured_endpoint: "solubility (g/100 g solution)"
  result: 0.358
- compound: "S=c1[nH]ncs1 + CCCO + O"
  measured_endpoint: "solubility (g/100 g solution)"
  result: 8.48
- compound: "CC(N)C(=O)O (configuration not stated) + O + CC(C)=O"
  measured_endpoint: "solubility (g/100 g solution)"
  result: 0.0712

Let's switch to this compound now.
Request: Name the recorded solubility (g/100 g solution) for Cc1ncc(C[n+]2csc(CCO)c2C)c(N)n1.O=[N+]([O-])[O-] + O + CC(C)=O .
Response: 0.441

---

# procedure_summary: xn = mol fraction of the nth substance listed, in the solute-free solvent
# test_parameters: 278.15 K; x2 = 0.1
measured_endpoint: solubility (g/100 g solution)
One number for each entry.

Here's what some known entries look like.
- compound: "S=c1[nH]ncs1 + CC(C)=O + O"
  solubility (g/100 g solution): 1.78
- compound: "S=c1[nH]ncs1 + CCCO + O"
  solubility (g/100 g solution): 1.64
- compound: "S=c1[nH]ncs1 + CCO + O"
  solubility (g/100 g solution): 0.653
- compound: "Cc1ncc(C[n+]2csc(CCO)c2C)c(N)n1.O=[N+]([O-])[O-] + O + CO"
  solubility (g/100 g solution): 0.197

Let's switch to this compound now.
Request: Name the recorded solubility (g/100 g solution) for S=c1[nH]ncs1 + CO + O .
Response: 0.5

---

# procedure_summary: xn = mol fraction of the nth substance listed, in the solute-free solvent
# test_parameters: 323.15 K; x2 = 0.4117
For each of the compounds below, state its solubility (g/100 g solution).
Answers are plain numbers.

- compound: "Nc1nccnc1Cl + CC(C)O + O"
  solubility (g/100 g solution): 1.85
- compound: "Cc1[nH]c(=O)c(C#N)cc1-c1ccncc1 + CC(C)O + O"
  solubility (g/100 g solution): 0.0256
- compound: "c1ccc2[nH]c(-c3cscn3)nc2c1 + CC(C)O + O"
  solubility (g/100 g solution): 0.433
- compound: "Nc1cccc(S(=O)(=O)c2cccc(N)c2)c1 + CC(C)O + O"
  solubility (g/100 g solution): 2.48
- compound: "c1ccc2[nH]c(-c3cscn3)nc2c1 + CCCO + O"
  solubility (g/100 g solution): 0.794

Let's switch to this compound now.
Request: Name the recorded solubility (g/100 g solution) for CN1CCN(C2=Nc3cc(Cl)ccc3Nc3ccccc32)CC1 + CC(C)O + O .
Response: 2.21

---

# procedure_summary: xn = mol fraction of the nth substance listed, in the solute-free solvent
# test_parameters: 283.15 K; x2 = 0.1666
measured_endpoint: solubility (g/100 g solution)
Give bare numbers.

- compound: "c1ccc2[nH]c(-c3cscn3)nc2c1 + CC(C)O + O"
  result: 0.0372
- compound: "Nc1cccc(S(=O)(=O)c2cccc(N)c2)c1 + CC(C)O + O"
  result: 0.236
- compound: "CN1CCN(C2=Nc3cc(Cl)ccc3Nc3ccccc32)CC1 + CC(C)O + O"
  result: 0.164
- compound: "Nc1nccnc1Cl + CC(C)O + O"
  result: 0.245

List solubility (g/100 g solution) for every entry below, keeping the order given.
1. c1ccc2[nH]c(-c3cscn3)nc2c1 + CCCO + O
2. Cc1[nH]c(=O)c(C#N)cc1-c1ccncc1 + CC(C)O + O

Response:
1: 0.0767; 2: 0.00445
